system under test: chimeric human RORγ-Gal4 receptor (Homo sapiens, UniProt P51449)
Sequence (P51449 269-508 limits assumed): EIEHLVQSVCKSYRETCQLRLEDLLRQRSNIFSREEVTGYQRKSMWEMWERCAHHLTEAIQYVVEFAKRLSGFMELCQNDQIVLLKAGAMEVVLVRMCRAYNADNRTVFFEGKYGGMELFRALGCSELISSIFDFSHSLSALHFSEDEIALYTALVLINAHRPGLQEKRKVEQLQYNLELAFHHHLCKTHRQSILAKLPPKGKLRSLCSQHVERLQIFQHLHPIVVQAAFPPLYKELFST
protocol notes: transient transactivation assay (RORγ-Gal4 luciferase reporter)
Type: cell-based
condition label: Cos-7 cells transfected with RORγ-Gal4 and 5Gal4 pGL3 TK Luc reporter; overnight incubation; T0901317 at 10^-5 M as reference; read-out: IC50
pIC50: −log10 of the molar value.
Recorded pIC50, one value per entry.
observed property: pIC50

>>> result("Cc1cc(C(N)=O)cc2c1nc(C(=O)c1c(Cl)ccc(C(=O)N3CCOCC3)c1Cl)n2C [Example BT]")
"5.00 to 6.00"
>>> result("Cn1c(Cc2c(Cl)ccc(C(=O)N3CCOCC3)c2Cl)cc2c(Cl)cc(C#N)cc21 [CJ]")
"5.00 to 6.00"
>>> result("Cn1c(Cc2c(Cl)ccc(C(=O)N3CCC(CC(=O)O)CC3)c2Cl)cc2c(Cl)cc(Cl)cc21 [FA]")
"> 7.00"
>>> result("COC[C@@H]1CN(C(=O)c2ccc(Cl)c(Cc3cc4c(C)cc(C(F)(F)F)cc4n3C)c2Cl)C[C@H]1C(=O)O [Example B-15]")
"5.00 to 6.00"
>>> result("Cc1cn(Cc2c(Cl)ccc(C(=O)N3CCC(C(=O)O)CC3)c2Cl)c2c(C)cc(C(F)(F)F)cc12 [DH]")
"> 7.00"
>>> result("Cc1cc(C(F)(F)F)nc2c1cc(Cc1c(Cl)ccc(C(=O)N3CCOCC3)c1Cl)n2C [CM]")
"> 7.00"
>>> result("Cc1cc(C#N)cc2c1cc(Cc1c(Cl)cnc(C(=O)N3CCC(O)CC3)c1Cl)n2C [BF-2]")
"6.30 to 7.00"
>>> result("Cc1c(C#N)ccc2c1cc(Cc1c(Cl)ccc(C(=O)N3CCC(CC(=O)O)CC3)c1Cl)n2C [EY]")
"> 7.00"

====

system under test: chimeric human RORγ-Gal4 receptor (Homo sapiens)
protocol notes: transient transactivation assay (RORγ-Gal4 luciferase reporter)
Assay type: cell-based
pIC50: −log10 of the molar value.
observed property: pIC50

>>> result("Cc1cc(C#N)cc2c1cc(Cc1c(Cl)ccc(CN3CCOCC3=O)c1Cl)n2C [Example AU]")
"6.30 to 7.00"

====

Recorded pIC50, one value per entry.
system under test: chimeric human RORγ-Gal4 receptor (Homo sapiens)
protocol notes: transient transactivation assay (RORγ-Gal4 luciferase reporter)
Type: cell-based
condition label: Cos-7 cells transfected with RORγ-Gal4 and 5Gal4 pGL3 TK Luc reporter; overnight incubation; T0901317 at 10^-5 M as reference; read-out: IC50
pIC50: −log10 of the molar value.
observed property: pIC50

>>> result("Cc1ccc(C(=O)N2CCOCC2)c(C)c1C(=O)c1cc2c(C)cc(C(F)(F)F)cc2n1C")
"6.30 to 7.00"
>>> result("Cc1cc(C#N)cc2c1cc(Cc1c(Cl)ccc(C(=O)NC3CCC(O)CC3)c1Cl)n2C (stereo not drawn)")
"6.30 to 7.00"
>>> result("Cc1cc(C(F)(F)F)nc2c1nc(Cc1c(Cl)ccc(C(=O)N3CCOCC3)c1Cl)n2C")
"5.00 to 6.00"
>>> result("Cc1cc(C(F)(F)F)cc2c1nc(Cc1c(Cl)ccc(CN3CCN(CC(F)(F)F)CC3)c1Cl)n2C")
"6.30 to 7.00"
>>> result("Cc1cc(C(F)(F)F)nc2c1cc(C(=O)c1c(Cl)ccc(C(=O)N3CCC(S(C)(=O)=O)CC3)c1Cl)n2C")
"> 7.00"
>>> result("Cc1cc(C(F)(F)F)cc2cn(Cc3c(Cl)ccc(C(=O)N4CCC(CC(=O)O)CC4)c3Cl)nc12")
"> 7.00"
>>> result("Cc1cc(C(F)(F)F)nc2c1cc(Cc1c(Cl)ncc(C(=O)N3CCOCC3)c1Cl)n2C")
"> 7.00"
>>> result("Cc1cc(OC(F)F)cc2c1cc(Cc1c(Cl)ccc(C(=O)N3CCC(C(=O)O)CC3)c1Cl)n2C")
"> 7.00"
>>> result("Cc1cc(C(F)(F)F)cc2c1cc(C(=O)c1c(Cl)ccc(C(=O)N3CC[C@H](C(=O)O)[C@H](C)C3)c1Cl)n2C (racemic) [AQ-3]")
"> 7.00"
>>> result("Cc1cc(C(F)(F)F)cc2occ(Cc3c(Cl)ccc(C(=O)N4CCC(CC(=O)O)CC4)c3Cl)c12")
"> 7.00"
>>> result("Cc1cn(C(=O)c2c(Cl)ccc(C(=O)N3CCC(CC(=O)O)CC3)c2Cl)c2c(C)cc(C#N)cc12")
"> 7.00"
>>> result("Cn1c(Cc2c(Cl)ccc(C(=O)N3CCC(CC(=O)O)CC3)c2Cl)cc2c(F)cc(C3CC3)cc21")
"> 7.00"
>>> result("Cc1ccc(C(=O)N2CCOCC2)c(C)c1Cc1cc2c(C)cc(C(F)(F)F)cc2n1C")
"> 7.00"
>>> result("Cc1cc(C#N)cc2c1cc(Cc1c(Cl)ccc(C(=O)N3CCC(N(C)C)CC3)c1Cl)n2C")
"6.30 to 7.00"
>>> result("Cc1cc(C(F)(F)F)cc2ccn(Cc3c(Cl)ccc(C(=O)N4CCC(CC(=O)O)CC4)c3Cl)c12")
"> 7.00"
>>> result("Cc1cc(C(F)(F)F)nc2c1cc(Cc1c(Cl)ncc(C(=O)N3CC[C@@H](CC(=O)O)[C@@H](C)C3)c1Cl)n2C")
"> 7.00"
>>> result("Cc1cc(C(F)(F)F)cc2c1cc(Cc1c(Cl)ccc(C(=O)N3CCN(C(C)C(=O)O)CC3)c1Cl)n2C (stereo not drawn)")
"> 7.00"
>>> result("Cc1cc(C(F)(F)F)cc2c1nc(Cc1c(Cl)ccc(C(=O)N3CCC(C4COC4)CC3)c1Cl)n2C")
"> 7.00"
>>> result("Cc1cc(OC(F)(F)F)cc2c1cc(Cc1c(Cl)ccc(C(=O)N3CCC(CC(=O)O)CC3)c1Cl)n2C")
"> 7.00"
>>> result("Cc1cc(OC(F)(F)F)cc2c1cc(Cc1c(Cl)ccc(C(=O)N3CC[C@@H](C(=O)O)[C@@H](C)C3)c1Cl)n2C")
"> 7.00"
>>> result("Cc1nn(Cc2c(Cl)ccc(C(=O)N3CCC(CC(=O)O)CC3)c2Cl)c2c(C)cc(C(F)(F)F)cc12")
"> 7.00"
>>> result("Cc1cn(C(=O)c2c(Cl)ccc(C(=O)N3CCC(O)CC3)c2Cl)c2c(C)cc(C#N)cc12")
"6.30 to 7.00"
>>> result("Cn1c(Cc2c(Cl)ccc(C(=O)N3CCOCC3)c2Cl)cc2c(Cl)cc(C#N)cc21 [DQ]")
"> 7.00"
>>> result("Cc1cn(Cc2c(Cl)ccc(C(=O)N3CCC(CC(=O)O)CC3)c2Cl)c2c(C)cc(C(F)(F)F)cc12")
"> 7.00"
>>> result("Cc1cc(C(F)(F)F)cc2c1cc(Cc1c(Cl)ccc(C(=O)N3CCC(C(C)(C)C(=O)O)CC3)c1Cl)n2C")
"> 7.00"
>>> result("Cc1cc(C(F)(F)F)cc2c1nc(C(=O)c1c(Cl)ccc(C(=O)N3CCOCC3)c1Cl)n2C")
"6.30 to 7.00"
>>> result("Cc1cc(C(F)(F)F)cn2c(C)c(Cc3c(Cl)ccc(C(=O)N4CCC(C5COC5)CC4)c3Cl)nc12")
"> 7.00"
>>> result("CC(=O)n1c(Cc2c(Cl)ccc(C(=O)N3CCOCC3)c2Cl)cc2c(C)cc(C(F)(F)F)cc21")
"> 7.00"
>>> result("Cc1cc(C(F)(F)F)cc2c1cc(Cc1c(Cl)ccc(C(=O)N3C[C@@]4(C(=O)O)CC[C@@H]3C4)c1Cl)n2C")
"6.30 to 7.00"
>>> result("Cc1cc(C(F)(F)F)nc2c1cc(C(=O)c1c(Cl)ccc(C(=O)N3CC[C@@H](C(=O)O)[C@@H](C)C3)c1Cl)n2C")
"6.30 to 7.00"

====

system under test: chimeric human RORγ-Gal4 receptor (Homo sapiens)
protocol notes: transient transactivation assay (RORγ-Gal4 luciferase reporter)
Assay type: cell-based
condition label: Cos-7 cells transfected with RORγ-Gal4 and 5Gal4 pGL3 TK Luc reporter; overnight incubation; T0901317 at 10^-5 M as reference; read-out: IC50
pIC50: −log10 of the molar value.
Recorded pIC50, one value per entry.
observed property: pIC50

>>> result("C[C@@H]1CN(C(=O)c2ccc(Cl)c(Cc3cc4c(F)cc(C(F)(F)F)cc4n3C)c2Cl)CC[C@@H]1C(=O)O [FE-3]")
"> 7.00"
>>> result("Cn1c(Cc2c(Cl)ccc(C(=O)N3CCC(C(=O)O)CC3)c2Cl)cc2ccc(OC(F)(F)F)cc21 [FI-1]")
"> 7.00"
>>> result("Cc1cc(C(F)(F)F)cc2c1nc(Cc1c(Cl)ccc(CN3CCC(C4COC4)CC3)c1Cl)n2C [BW-1]")
"6.30 to 7.00"
